From: paper PMC9721424

- system-under-test: UniProtKB P05979
- Sequence (P05979 25-600): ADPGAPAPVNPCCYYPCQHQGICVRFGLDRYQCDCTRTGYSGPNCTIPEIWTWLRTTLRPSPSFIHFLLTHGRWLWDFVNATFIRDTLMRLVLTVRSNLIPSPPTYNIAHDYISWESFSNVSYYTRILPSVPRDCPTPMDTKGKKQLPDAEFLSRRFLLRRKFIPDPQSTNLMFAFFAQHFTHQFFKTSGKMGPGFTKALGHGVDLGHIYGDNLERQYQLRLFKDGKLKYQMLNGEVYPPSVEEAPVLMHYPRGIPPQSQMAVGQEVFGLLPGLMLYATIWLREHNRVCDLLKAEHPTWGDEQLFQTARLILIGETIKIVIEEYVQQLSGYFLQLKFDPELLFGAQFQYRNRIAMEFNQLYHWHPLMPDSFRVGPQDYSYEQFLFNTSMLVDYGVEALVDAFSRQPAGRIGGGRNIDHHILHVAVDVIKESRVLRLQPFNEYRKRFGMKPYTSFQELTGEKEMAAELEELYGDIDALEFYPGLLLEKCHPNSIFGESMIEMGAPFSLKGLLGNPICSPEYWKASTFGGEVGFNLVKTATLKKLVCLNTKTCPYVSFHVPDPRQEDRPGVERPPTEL
- experimental-protocol: COX-1 inhibition, enzyme immune assay (EIA) kit
- conditions: IC50 COX1, lab report / text printing uM
endpoint-label: IC50 (µM)
Number only, in µM; omit the unit.

Query :: I would be grateful if you could share the reported IC50 for Cc1ccc(N2C(=O)CSC2=NN=Cc2cn(S(C)(=O)=O)c3ccccc23)cc1 .
Result :: 5.79

====

Assign COX1 %inh to each entry below.
- system-under-test: ovine COX-1 (Ovis aries)
- Sequence (P05979 25-600): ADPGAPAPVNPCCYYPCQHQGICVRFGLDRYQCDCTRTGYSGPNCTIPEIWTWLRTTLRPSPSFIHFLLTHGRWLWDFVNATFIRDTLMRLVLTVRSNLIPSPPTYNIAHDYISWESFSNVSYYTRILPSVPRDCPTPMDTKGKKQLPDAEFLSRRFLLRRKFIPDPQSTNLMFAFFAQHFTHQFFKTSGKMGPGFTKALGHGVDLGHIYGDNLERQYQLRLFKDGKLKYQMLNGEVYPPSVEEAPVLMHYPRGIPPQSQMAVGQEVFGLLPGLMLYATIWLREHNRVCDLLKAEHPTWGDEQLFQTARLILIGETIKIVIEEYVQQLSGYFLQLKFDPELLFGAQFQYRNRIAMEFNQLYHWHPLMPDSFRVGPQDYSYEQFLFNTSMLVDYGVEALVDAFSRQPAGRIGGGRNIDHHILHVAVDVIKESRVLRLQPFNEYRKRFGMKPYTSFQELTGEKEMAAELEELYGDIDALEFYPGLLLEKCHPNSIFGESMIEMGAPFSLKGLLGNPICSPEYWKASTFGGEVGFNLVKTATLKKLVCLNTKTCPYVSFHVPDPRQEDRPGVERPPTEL
- experimental-protocol: COX-1 inhibition, enzyme immune assay (EIA) kit
- conditions: conc 10 (μM)
Give the value; after it, write the unit.

Query :: // lookup COX1 %inh for COc1ccc(N2CC(=O)S/C2=N\N=C\c2cn(S(C)(=O)=O)c3ccccc23)cc1 [Compound 5e]
Result :: 20%

Query :: What do we get for Cc1ccc(N2C(=O)CSC2=NN=Cc2cn(S(C)(=O)=O)c3ccccc23)cc1 [Compound 5d] ?
Result :: 53.7%

Query :: Also need CS(=O)(=O)n1cc(/C=N/NC(N)=S)c2ccccc21 [Compound 4a] , thanks.
Result :: 44%

Query :: Continue with CS(=O)(=O)n1cc(/C=N/N=C2/NCC(=O)S2)c2ccccc21 [Compound 5a]
Result :: 59%

Query :: For CCNC(=S)N/N=C/c1cn(S(C)(=O)=O)c2ccccc12 [Compound 4b] then?
Result :: 27.4%

Query :: Also, CS(=O)(=O)n1cc(/C=N/NC(N)=O)c2ccccc21 [Compound 3a] please.
Result :: 37.8%

Query :: Then CS(=O)(=O)n1cc(/C=N/N=C2\SC(=O)CN2c2ccccc2)c2ccccc21 [Compound 5c] ?
Result :: 27.9%

Query :: And what about the molecule CS(=O)(=O)n1cc(/C=N/NC(=O)Nc2ccccc2)c2ccccc21 [Compound 3b] ?
Result :: 30.5%

Query :: Next entry: Cc1ccc(NC(=S)N/N=C/c2cn(S(C)(=O)=O)c3ccccc23)cc1 [Compound 4d]
Result :: 36.4%

Query :: # repeat for CS(=O)(=O)n1cc(/C=N/NC(=S)Nc2ccccc2)c2ccccc21 [Compound 4c]
Result :: 60.6%

Query :: Item: COc1ccc(NC(=S)N/N=C/c2cn(S(C)(=O)=O)c3ccccc23)cc1 [Compound 4e]
Result :: 28.6%

Query :: // repeat for CCN1CC(=O)S/C1=N\N=C\c1cn(S(C)(=O)=O)c2ccccc12 [Compound 5b] and report
Result :: 31.1%

====

- system-under-test: UniProt:P79208
- Sequence (P79208 17-603): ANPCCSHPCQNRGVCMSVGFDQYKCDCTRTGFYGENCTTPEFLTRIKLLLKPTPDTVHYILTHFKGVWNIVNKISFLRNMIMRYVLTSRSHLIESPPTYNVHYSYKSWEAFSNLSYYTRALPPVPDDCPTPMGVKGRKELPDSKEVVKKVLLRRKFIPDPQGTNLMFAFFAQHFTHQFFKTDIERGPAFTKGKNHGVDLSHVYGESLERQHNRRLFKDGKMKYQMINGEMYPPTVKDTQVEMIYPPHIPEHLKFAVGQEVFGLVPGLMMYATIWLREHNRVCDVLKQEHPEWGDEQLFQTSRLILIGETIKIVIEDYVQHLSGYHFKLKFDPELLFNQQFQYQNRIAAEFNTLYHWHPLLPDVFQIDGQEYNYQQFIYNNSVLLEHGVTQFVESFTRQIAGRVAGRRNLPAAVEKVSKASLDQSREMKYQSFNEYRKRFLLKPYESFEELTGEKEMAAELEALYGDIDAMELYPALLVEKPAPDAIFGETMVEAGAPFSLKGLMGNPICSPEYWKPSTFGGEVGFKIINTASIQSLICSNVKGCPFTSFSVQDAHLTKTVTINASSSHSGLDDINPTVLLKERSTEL
- experimental-protocol: COX-2 inhibition, enzyme immune assay (EIA) kit
- Format: biochemical, ovine
- conditions: lab report, COX1/COX2
endpoint-label: SI
Give your answer as a number; write no unit.

Query :: Reported SI for Cc1ccc(NC(=S)N/N=C/c2cn(S(C)(=O)=O)c3ccccc23)cc1 : what is it?
Result :: 2.375

Query :: Another molecule to check: CS(=O)(=O)n1cc(/C=N/NC(N)=S)c2ccccc21
Result :: 2.799

Query :: Another molecule to look at: CCNC(=S)N/N=C/c1cn(S(C)(=O)=O)c2ccccc12
Result :: 0.236

Query :: What do you get for CS(=O)(=O)n1cc(/C=N/NC(=O)Nc2ccccc2)c2ccccc21 ?
Result :: 1.455

Query :: And the next one, COc1ccc(NC(=S)N/N=C/c2cn(S(C)(=O)=O)c3ccccc23)cc1 ?
Result :: 30.17

====

- system-under-test: ovine COX-1 (Ovis aries)
- experimental-protocol: COX-1 inhibition, enzyme immune assay (EIA) kit
- conditions: conc 100 (μM)
endpoint-label: COX1 %inh
Quick note: unit goes after the number.

Query :: Report COX1 %inh for CCN1CC(=O)S/C1=N\N=C\c1cn(S(C)(=O)=O)c2ccccc12 please.
Result :: 73.6%

Query :: Try CS(=O)(=O)n1cc(/C=N/NC(=S)Nc2ccccc2)c2ccccc21 next.
Result :: 83.5%

Query :: Can you check Cc1ccc(N2C(=O)CSC2=NN=Cc2cn(S(C)(=O)=O)c3ccccc23)cc1 next?
Result :: 83.6%

Query :: Now the same for CS(=O)(=O)n1cc(/C=N/N=C2/NCC(=O)S2)c2ccccc21
Result :: 85.6%

====

- system-under-test: UniProt:P05979
- experimental-protocol: COX-1 inhibition, enzyme immune assay (EIA) kit
- conditions: conc 0.1 (μM)
endpoint-label: COX1 %inh
Show the value, then the unit it is measured in.

Query :: Fill in: COX1 %inh of COc1ccc(NC(=S)N/N=C/c2cn(S(C)(=O)=O)c3ccccc23)cc1 is ___
Result :: 5.87%

Query :: Also, COc1ccc(N2CC(=O)S/C2=N\N=C\c2cn(S(C)(=O)=O)c3ccccc23)cc1 please.
Result :: 3.76%

Query :: Another: CS(=O)(=O)n1cc(/C=N/NC(N)=S)c2ccccc21
Result :: 7.54%
